Provenance of the data: the supplement of paper PMC10567573

B1: MNAT1 (parent)
chain: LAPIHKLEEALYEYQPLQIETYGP

variants of: B1; experiment: protein stability index of a GFP-peptide fusion (GPS, HEK-293T) (PSI 1-6); higher = more stable; details: c terminus: a fixed tail appended;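 note: lentivirally expressed fusions sorted by FACS into six bins by GFP to DsRed ratio, PSI derived from sequencing read proportions per bin multiplied by bin number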
The following variants are listed with their measured protein stability index values.
RESULT TYPE: protein stability index

VARIANT KEY: Y22C
ASSAY VALUE: 1.96
--
VARIANT KEY: P16R
ASSAY VALUE: 2.02
--
VARIANT KEY: P3K
ASSAY VALUE: 2.04
--
VARIANT KEY: L1G
ASSAY VALUE: 1.98
